Source: BindingDB's records for doi:10.1021/jm500308c

Listing of recorded EC50 by entry.
Target: Nuclear factor erythroid 2-related factor 2 (Homo sapiens, UniProt Q16236)
Sequence (Q16236 whole entry): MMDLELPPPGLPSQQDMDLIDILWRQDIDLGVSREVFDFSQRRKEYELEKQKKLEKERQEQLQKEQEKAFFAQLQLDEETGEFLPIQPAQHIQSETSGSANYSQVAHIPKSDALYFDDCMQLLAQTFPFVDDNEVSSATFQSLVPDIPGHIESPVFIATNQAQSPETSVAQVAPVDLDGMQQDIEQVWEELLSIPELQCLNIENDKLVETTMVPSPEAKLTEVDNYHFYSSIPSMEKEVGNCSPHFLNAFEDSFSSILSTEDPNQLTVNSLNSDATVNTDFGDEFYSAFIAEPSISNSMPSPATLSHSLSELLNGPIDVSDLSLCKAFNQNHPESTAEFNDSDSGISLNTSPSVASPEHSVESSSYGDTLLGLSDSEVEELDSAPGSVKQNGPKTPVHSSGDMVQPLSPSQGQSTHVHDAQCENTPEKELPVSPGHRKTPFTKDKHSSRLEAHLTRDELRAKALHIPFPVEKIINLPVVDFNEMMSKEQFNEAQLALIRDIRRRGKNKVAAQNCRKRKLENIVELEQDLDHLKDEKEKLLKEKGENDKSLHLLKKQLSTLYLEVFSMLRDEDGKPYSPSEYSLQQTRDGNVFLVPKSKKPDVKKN
Experiment: Activation of Nrf2 transcriptional activity in human LNCaP cells after 6 hrs by luciferase reporter gene assay relative to tert-butylhydroquinone

>  <SMILES CODE>
COc1cc(/C=C/C(=O)/C=C/c2ccc(O)c(OC)c2)ccc1O

>  <TARGET OR SYSTEM>
Nuclear factor erythroid 2-related factor 2 (Homo sapiens, UniProt Q16236)

>  <EC50 (µM)>
0.9

$$$$
>  <SMILES CODE>
COc1cc(C=CC(=O)CC(=O)C=Cc2ccc(O)c(OC)c2)ccc1O

>  <TARGET OR SYSTEM>
Nuclear factor erythroid 2-related factor 2 (Homo sapiens, UniProt Q16236)

>  <EC50 (µM)>
9.9

$$$$
>  <SMILES CODE>
COc1cc(/C=C/C(=O)/C=C/c2cc(F)c(O)c(OC)c2)cc(F)c1O

>  <TARGET OR SYSTEM>
Nuclear factor erythroid 2-related factor 2 (Homo sapiens, UniProt Q16236)

>  <EC50 (µM)>
3.1

$$$$
>  <SMILES CODE>
COc1cc(/C=C/C(=O)CC(=O)/C=C/c2cc(F)c(O)c(OC)c2)cc(F)c1O

>  <TARGET OR SYSTEM>
Nuclear factor erythroid 2-related factor 2 (Homo sapiens, UniProt Q16236)

>  <EC50 (µM)>
8.6

$$$$
